Experiment: basal HepG2 mitochondrial membrane potential changes, profiling panel, cell-based, JC-1 fluorescence, 24 h, 100 nL compound (AID 1167); note: test concentration not given here
Details: higher = more signal
Classification field: enter 1.0 for z-score values not below 1, 0.0 for values below it.

compound	cat
C=C(CCCC)C(=O)CC[C@@H](OC(=O)c1cccnc1)c1cccc(OCCO)c1	0.0
N#Cc1ccc(NN2C(C(O)CCc3ccccc3)C=CC3C(=O)N(c4ccccc4)C(=O)C32)cc1 (configuration not stated)	0.0
N#Cc1ccc(NN2C(C(O)c3ccc(I)cc3)C=CC3C(=O)N(c4ccccc4)C(=O)C32)cc1 (configuration not stated)	0.0
C=CC[C@@]1(C(=O)NCC(O)CO)N=C(c2ccc(OCCCO)cc2)O[C@@H]1c1ccccc1CN=[N+]=[N-] (some centres not stated)	1.0
CC(C)NC(=O)[C@@]1(Cc2ccccc2I)c2ccccc2C(=O)N(C2CCCCC2)[C@H]1c1ccc(CO)cc1	1.0
COCCOC(=O)N1C(=O)[C@@]2(c3cc(C#CCCO)ccc31)[C@H](C(=O)N1CCCCCCC1)[C@H]1C(=O)O[C@H](c3ccccc3)[C@H](c3ccccc3)N1[C@@H]2c1ccc(O)cc1	0.0
CC/C=C/C(=O)N(C[C@@H]1CCCO1)[C@@H]1CC(C(=O)NCCO)=C[C@H](Oc2c(I)cc(CO)cc2OC)[C@H]1O	1.0

====

Below, each entry is listed alongside its reported z-score.
Assay: A549 cell viability effects, profiling panel, calcein-AM fluorescence, 48 h, basal (AID 1162); note: test concentration not given here
Conditions: higher = more signal
observedProperty: z-score

                                 itemsmiles  observedproperty  experimentalresult
0  O=C1C[C@@](C(=O)NCCN2CCOCC2)(c2ccc([N+](=O)[O-])cc2)[C@@H](c2ccc(CO)cc2)N1C1CCCCC1           z-score                1.16
1  [N-]=[N+]=NCc1ccccc1[C@H]1OC(c2ccc(OCCCO)cc2)=N[C@@]1(Cc1ccccc1N=[N+]=[N-])C(=O)NCc1ccccc1           z-score              -0.741
2  CC(=O)NCCCC[C@@H]1NC(=O)[C@H]2C[C@@H](C(=O)NCCCCCCN(C)C)[C@@H](c3cccc(OCCO)c3)N2C1=O           z-score               0.214
3  NC(=O)NCC#Cc1ccc2c(c1)[C@]1(C(=O)N2)[C@H](C(N)=O)[C@H]2C(=O)O[C@H](c3ccccc3)[C@H](c3ccccc3)N2[C@@H]1c1ccccc1OCCO           z-score               -1.23
4  CCN1C(C)=C(C(=O)OC)[C@@H](c2ccccc2)N2C(=O)[C@](O)(C(=O)OC)[C@@H](c3ccccc3)C(C(C)=O)=C12           z-score               0.158
5  O=C1O[C@@H](c2ccccc2)[C@@H](c2ccccc2)N2[C@@H](c3ccc(O)cc3)[C@]3(C(=O)Nc4ccccc43)[C@@H](C(=O)N3CCN(c4ncccn4)CC3)[C@H]12           z-score               0.661
6  CCOC(=O)C1=CC[C@@H](c2ccccc2)N(S(=O)(=O)c2ccc(C)cc2)[C@H]1C           z-score               -1.54

====

Below, each entry is listed alongside its reported composite z-score.
Assay: COS7 lysate on small-molecule microarray, probe aHis, 635 nm (AID 1123);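 note: z-score combines 667nm fluorescence intensity with signal-to-noise per printed compound spot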
Conditions: COS7 cell lysate, fluorescence, higher = more signal
observedProperty: composite z-score

>>> print(df.to_string())
                                   compound  experimentalresult
0  C[N+](C)(C)CCCCNC(=O)[C@@H]1C[C@@H]2C(=O)N3CCC[C@H]3C(=O)N2[C@@H]1c1cccc(OCCO)c1               0.538
1  CC(C)N1CC=CC23O[C@@H]4/C=C\CCCOC(=O)C4[C@H]2C(=O)N(CCO)[C@@H]3C1=O (some centres undefined)               0.572
2  C=CC[C@@]1(C(=O)N2CCOCC2)N=C(c2ccc(OCCCO)cc2)O[C@@H]1c1ccccc1                2.17
3  C=C[C@H](OC)[C@@H](OC(=O)Nc1ccc(SC)cc1)c1ccc(O)c(F)c1                2.82

====

Molecular target: Albumin (Bos taurus)
Assay: bovine serum albumin binders on microarray, profiling panel, artefact control for SMM control protein annotation, biochemical, small-molecule microarray, Alexa647 label, 635/667 nm fluorescence (AID 1118);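 note: score merges 667 nm emission intensity and signal-to-noise per printed compound spot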
Details: BSA-A647 binding, fluorescence 635 nm, higher = more signal
// thresholds for composite z-score classes: 0 = under -0.7, 1 = from -0.7 up to 0.5, 2 = 0.5 and over

molecule	cat
C#CCNC(/C=C/c1ccccc1)CO (stereo unspecified)	1
CCOC(=O)C[C@H]1[C@H](OC(=O)c2cc3ccccc3oc2=O)[C@@H](NC(=O)c2ccc3ccccc3c2)c2cc(OCCCO)ccc2N1C(=O)c1ccc2ccccc2n1	2
CCOC(=O)C[C@H]1[C@H](OC(=O)c2ccccc2-c2ccccc2)[C@@H](NC(=O)C2CCCCC2)c2cc(OCCCO)ccc2N1C(=O)c1ccccc1	2
CO[C@@H]1COC(=O)[C@@H]2CCCN2C(=O)CC=C[C@@H](C)[C@H](OC)COC(=O)[C@@H]2CCCN2C(=O)CC=C[C@H]1C	0
CO[C@H]1COC(=O)[C@@H](Cc2ccccc2)NC(=O)[C@@H](C)COC(=O)CC=C[C@@H]1C	0
C[C@@H]1NC(=O)CC=C[C@@H](C)[C@@H]2C=C[C@H](O)[C@@H](COC(=O)[C@H](C)NC(=O)CC=C[C@@H](C)[C@@H]3C=C[C@H](O)[C@@H](COC1=O)O3)O2	0
C=C(COC)C(=O)CC[C@H](OC(=O)c1ccccc1-c1ccccc1C(=O)O)c1cccc(OCCO)c1	1
O=C(NCc1ccccc1)c1ccc(Br)cc1[N+](=O)[O-]	1
CN(C)C(=O)[C@@]1(Cc2ccccc2N=[N+]=[N-])N=C(c2ccc(OCCCO)cc2)O[C@H]1c1ccccc1CN=[N+]=[N-]	2
Cc1ccc(S[C@]2(C(=O)NC3CC3)CC(=O)N(Cc3cc(C(F)(F)F)cc(C(F)(F)F)c3)[C@@H]2c2ccc(CO)cc2)cc1	1
O=C(NCc1ccccc1)[C@@]1(Cc2ccccc2)COC(c2ccc(OCCCO)cc2)=N1	1
COCC(=C=CC[C@H](O)c1ccc(OCCO)cc1)C[C@H](O)c1ccccn1	0
C=CC[C@]1(C(=O)NCC(O)CO)N=C(c2ccc(OCCCO)cc2)O[C@H]1c1ccccc1 (stereo partly specified)	2
C=CCN(C(=O)C1N(c2ccc(CCO)cc2)C(=O)C2C(C(=O)O)C3C=CC21O3)C(C)(C)C (stereo unspecified)	0

====

Test: small-molecule microarray binders of probe aNog, primary screen, biochemical, biotinylated probe, 635/667 nm fluorescence (AID 1115);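 note: probe is biotinylated aNog protein used at 0.15 µg/mL for 1 h at 4 C; z-score combines 667 nm fluorescence of each spot with its signal to noise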
Settings: higher = more signal
observedProperty: composite z-score

itemSmiles	observedProperty	experimentalResult
C[C@@H]1NC(=O)CC=C[C@@H](C)[C@@H]2C=C[C@H](O)[C@@H](COC(=O)[C@H](C)NC(=O)CC=C[C@@H](C)[C@@H]3C=C[C@H](O)[C@@H](COC1=O)O3)O2	composite z-score	-0.134
O=C1O[C@H](c2ccccc2)[C@H](c2ccccc2)N2[C@H]1[C@@H](C(=O)Nc1nc3ccccc3s1)[C@]1(C(=O)Nc3ccc(C#CC4=CCCCC4)cc31)[C@H]2c1ccccc1OCCO	composite z-score	0.184
O=C1O[C@@H](c2ccccc2)[C@@H](c2ccccc2)N2[C@@H](c3ccc(O)cc3)[C@]3(C(=O)Nc4ccc(C#CC5(O)CCCCCC5)cc43)[C@@H](C(=O)Nc3nc4ccccc4s3)[C@H]12	composite z-score	1.15
CO[C@H]1COC(=O)[C@@H](OCc2ccccc2)C=C[C@H](C)[C@@H](OC)COC(=O)[C@H](OCc2ccccc2)C=C[C@@H]1C	composite z-score	-0.397
CCCC=C(CCC)[C@@H](NS(=O)(=O)c1cccc(C(F)(F)F)c1)c1ccc(C(=O)OC)cc1	composite z-score	2.97
C=C[C@H](OC)[C@@H](OC(=O)Nc1ccc(SC)cc1)c1ccc(O)c(F)c1	composite z-score	-0.443

====

Below, each entry is listed alongside its reported composite z-score.
Assay: small-molecule microarray binders of probe aShh, primary screen, biochemical, biotinylated probe, 635/667 nm fluorescence (AID 1114);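 note: probe is biotin-labelled aShh protein from a stem cell growth factor screen; measures binding of labelled protein to compounds printed on the slide; score merges feature fluorescence at 667 nm with signal-to-noise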
Settings: higher = more signal
observedProperty: composite z-score

molecule	experimentalResult
COC(=O)[C@@]1(Cc2ccc(OC)cc2)[C@H]2c3cc(C(=O)N(C)C)n(Cc4ccc(C)c(F)c4F)c3C[C@H]2CN1C(=O)c1ccccc1	0.575
Cc1ccc(S[C@]2(C(=O)NC(C)C)CC(=O)N(C3Cc4ccccc4C3)[C@@H]2c2ccc(CO)cc2)cc1	-0.421
C=CCC(OC(C)=O)[C@@H]1[C@@H](N(Cc2cccc3ccccc23)C(=O)c2ccc(C)cc2)c2cc(OCCCO)ccc2N1C(=O)c1ccc(-c2ccccc2)cc1 (stereo partly drawn)	-0.273
O=C1C2C=CC(C(O)Cc3ccccc3)N(Nc3ccc([N+](=O)[O-])cc3)C2C(=O)N1c1ccccc1 (stereo not drawn)	0.203
COCCOC(=O)N1C(=O)[C@@]2(c3cc(C#CCNC(N)=O)ccc31)[C@H](C(=O)N1CCCCCCC1)[C@H]1C(=O)O[C@H](c3ccccc3)[C@H](c3ccccc3)N1[C@@H]2c1ccccc1OCCO	0.46
O=C(CS)NCCCCCNC(=O)[C@H]1C[C@H]2C(=O)N[C@@H](Cc3ccccc3)C(=O)N2[C@H]1c1ccc(O)cc1	0.184
CO[C@H]1COC(=O)CC=C[C@H](C)COC(=O)[C@@H](OCc2ccccc2)C=C[C@@H]1C	-0.283
COc1ccc(CCN2C(=O)[C@@]3(c4ccc([N+](=O)[O-])cc4)CC(=O)N(CC45CC6CC(CC(C6)C4)C5)[C@@H]3c3ccc(CO)cc32)cc1	-0.181
C/C(=N\O)C(=O)NCCCCCNC(=O)OCc1ccccc1	-0.262
O=C(NCC(O)CO)[C@]1(Cc2ccccc2)N=C(c2ccc(OCCCO)cc2)O[C@@H]1c1ccccc1 (stereo partly drawn)	-0.0642
CC(=O)NCCCC[C@@H]1NC(=O)[C@H]2C[C@@H](C(=O)NCCCCCCN(C)C)[C@@H](c3ccc(O)cc3)N2C1=O	0.23
CCC1=C2CN(Cc3ccccc3Br)[C@@H]([C@@H](O)Cc3ccccc3)C2C=CCC1 (stereo partly drawn)	-0.0709
C=C(COC)/C(=C/C[C@@H](OC(C)=O)c1cccc(OCCO)c1)c1cc(C(=O)OC)ccc1OC	-0.0289
COC(=O)C1=CC(c2ccc(CO)cc2)=CC(c2cccs2)N(Cc2cccc(OC(F)(F)F)c2)C=C1C(=O)OC (stereo not drawn)	0.685
C[C@@H]1NC(=O)CC=C[C@@H](C)[C@@H]2C=C[C@H](O)[C@@H](COC(=O)[C@H](C)NC(=O)CC=C[C@@H](C)[C@@H]3C=C[C@H](O)[C@@H](COC1=O)O3)O2	-0.426
COCCOC(=O)N1C(=O)[C@@]2(c3cc(C#CCC(C(=O)OC)C(=O)OC)ccc31)[C@H](C(=O)N1CCN(c3ncccn3)CC1)[C@H]1C(=O)O[C@H](c3ccccc3)[C@H](c3ccccc3)N1[C@@H]2c1ccc(O)cc1	0.272
O=C1OCCC/C=C\[C@H]2OC34C=CCN(CCN5CCOCC5)C(=O)[C@H]3N(CCCCCO)C(=O)[C@@H]4C12 (stereo partly drawn)	-0.147
C[C@]1(C(=O)NCCN2CCOCC2)c2ccccc2C(=O)N(Cc2ccccc2)[C@H]1c1ccc(CO)cc1	0.163
C=C(CCCC)/C(=C/C[C@@H](OC(=O)c1ccncc1)c1cccc(OCCO)c1)c1cc(C(=O)OC)ccc1OC	-0.138
CCCC=C(CCC)[C@@H](NC(=O)c1ccc(C(F)(F)F)cc1)c1ccccc1	0.213
CC(=O)NCCCC[C@@H]1NC(=O)[C@H]2C[C@@H](C(=O)NCCCCCCN(C)C)[C@@H](c3cccc(OCCO)c3)N2C1=O	0.323
O=C1c2ccccc2[C@@]2(Cc3ccccc3N(CC(F)(F)F)C2=O)[C@H](c2ccc(CO)cc2)N1C1CCCCC1	-0.0977
CCCC/C=C/[C@H]([C@@H](O)Cc1ccccc1)N(CC#Cc1ccccc1)Cc1ccccc1Br	-0.366
C[C@@H]1C=CCC(=O)OC[C@H]2O[C@@H](C=C[C@@H]2O)[C@H](C)C=CCC(=O)OC[C@H]2O[C@H]1C=C[C@@H]2O	0.186
COC(=O)[C@@]1(Cc2ccc(OC)cc2)[C@H]2c3cc(C(=O)N(C)C)n(CCc4ccc(OC)c(Br)c4)c3C[C@H]2CN1C(=O)c1ccccc1	2.03
COCCOC(=O)N1C(=O)[C@@]2(c3cc(C#CCCO)ccc31)[C@H](c1ccc(OCCO)cc1)N1[C@H](c3ccccc3)[C@H](c3ccccc3)OC(=O)[C@H]1[C@@H]2C(=O)NC[C@H](O)c1ccccc1	-0.0904
COC(=O)C[C@H]1O[C@]2(C(=O)N(Cc3ccccc3)c3ccc(I)cc32)[C@@H](C)[C@@H]1[Si](C)(C)c1ccc(OC)cc1	0.0062
Cc1ccc(S[C@]2(C(=O)NCCCN(C)C)CC(=O)N(Cc3ccccc3)[C@@H]2c2ccc(CO)cc2I)cc1	0.0756
